Data credit: ChEMBL document CHEMBL3039007

target-entity: Solute carrier organic anion transporter family member 1B1 (Homo sapiens)
Sequence (Q9Y6L6 whole entry): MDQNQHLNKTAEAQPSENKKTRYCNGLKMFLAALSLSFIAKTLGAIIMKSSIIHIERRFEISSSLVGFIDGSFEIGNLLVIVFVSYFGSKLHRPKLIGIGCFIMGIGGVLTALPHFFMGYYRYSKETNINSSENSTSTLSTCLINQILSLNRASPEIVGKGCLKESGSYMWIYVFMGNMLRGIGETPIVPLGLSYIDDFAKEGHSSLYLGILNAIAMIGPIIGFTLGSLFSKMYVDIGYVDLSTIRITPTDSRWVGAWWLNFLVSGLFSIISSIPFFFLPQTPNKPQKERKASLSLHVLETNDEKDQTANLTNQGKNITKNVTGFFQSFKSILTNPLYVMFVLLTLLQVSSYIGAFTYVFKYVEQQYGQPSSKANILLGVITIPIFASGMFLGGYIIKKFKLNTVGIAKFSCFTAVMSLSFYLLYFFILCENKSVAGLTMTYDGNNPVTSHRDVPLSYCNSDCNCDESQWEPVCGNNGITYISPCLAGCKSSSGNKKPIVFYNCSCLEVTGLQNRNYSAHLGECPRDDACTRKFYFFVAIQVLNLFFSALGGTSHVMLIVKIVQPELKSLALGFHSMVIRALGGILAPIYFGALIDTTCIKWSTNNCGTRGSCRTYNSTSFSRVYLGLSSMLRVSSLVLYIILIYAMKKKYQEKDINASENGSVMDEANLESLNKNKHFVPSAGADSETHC
conditions: chinese hamster, cho, 10 µM
As shown below, each of these compounds has a reported residual activity value.
outcome-measure: residual activity (%)

compound=Cc1c(Cl)cccc1Nc1ccccc1C(=O)O outcome_measure="residual activity" measurement_unit=% obs_value=95.07
compound=COc1ccc(-c2cc(=O)c3c(O)cc(O[C@@H]4O[C@H](CO[C@@H]5O[C@@H](C)[C@H](O)[C@@H](O)[C@H]5O)[C@@H](O)[C@H](O)[C@H]4O)cc3o2)cc1O outcome_measure="residual activity" measurement_unit=% obs_value=67.13
compound="O=C1OC(=O)C2C3CCC(O3)C12 (stereo not given)" outcome_measure="residual activity" measurement_unit=% obs_value=106.4
compound="CC12CC3CC(C)(C1)CC(N)(C3)C2.Cl [MEMANTINE HYDROCHLORIDE]" outcome_measure="residual activity" measurement_unit=% obs_value=88.64
compound=COc1ccc(-c2coc3cc(O)ccc3c2=O)c(OC)c1O outcome_measure="residual activity" measurement_unit=% obs_value=85.61

----------
target-entity: Solute carrier organic anion transporter family member 1B3 (Homo sapiens, UniProt Q9NPD5)
Sequence (Q9NPD5 whole entry): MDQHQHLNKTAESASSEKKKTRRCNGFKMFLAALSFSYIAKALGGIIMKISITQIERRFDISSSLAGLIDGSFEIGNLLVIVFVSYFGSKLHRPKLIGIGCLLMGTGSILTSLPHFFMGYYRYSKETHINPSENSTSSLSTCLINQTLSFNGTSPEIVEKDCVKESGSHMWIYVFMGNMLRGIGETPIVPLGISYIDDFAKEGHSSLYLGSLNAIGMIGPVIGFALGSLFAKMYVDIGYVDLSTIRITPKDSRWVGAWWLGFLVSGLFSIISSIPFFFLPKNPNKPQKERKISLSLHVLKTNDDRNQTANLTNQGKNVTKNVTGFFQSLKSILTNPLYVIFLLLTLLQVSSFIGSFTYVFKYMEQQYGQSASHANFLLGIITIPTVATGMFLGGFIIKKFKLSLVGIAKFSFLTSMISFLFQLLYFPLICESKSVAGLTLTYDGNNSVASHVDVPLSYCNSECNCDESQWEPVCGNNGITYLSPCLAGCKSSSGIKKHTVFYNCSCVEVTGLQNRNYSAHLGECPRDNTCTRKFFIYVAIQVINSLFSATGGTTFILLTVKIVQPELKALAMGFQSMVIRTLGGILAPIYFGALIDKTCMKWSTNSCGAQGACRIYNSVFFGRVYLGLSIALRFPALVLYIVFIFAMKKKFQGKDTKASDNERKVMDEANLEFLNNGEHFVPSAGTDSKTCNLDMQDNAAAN
conditions: chinese hamster, cho, 10 µM
outcome-measure: residual activity (%)

compound="CC(C)c1c(O)ccc2c1CCC1[C@@](C)(C(=O)O)CCC[C@]21C (some centres not stated)" outcome_measure="residual activity" measurement_unit=% obs_value=80.85
compound="Oc1ccc2c(c1)OC[C@H]1c3cc4c(cc3O[C@@H]21)OCO4 [MAACKIAIN]" outcome_measure="residual activity" measurement_unit=% obs_value=114.4
compound="C[C@@H]1O[C@@H](O[C@H]2[C@H](O[C@H]3CC[C@@]4(C)[C@@H](CC[C@]5(C)[C@@H]4CC=C4[C@@H]6CC(C)(C)CC[C@]6(C(=O)O[C@@H]6O[C@H](CO[C@@H]7O[C@H](CO)[C@@H](O[C@@H]8O[C@@H](C)[C@H](O)[C@@H](O)[C@H]8O)[C@H](O)[C@H]7O)[C@@H](O)[C@H](O)[C@H]6O)CC[C@]45C)[C@]3(C)CO)OC[C@H](O)[C@@H]2O)[C@H](O)[C@H](O)[C@H]1O [KALOPANAXSAPONIN B]" outcome_measure="residual activity" measurement_unit=% obs_value=109.8
compound="C=C1CC[C@@H]2[C@](C)(CO)[C@H](O)CC[C@@]2(C)[C@@H]1C/C=C1/C(=O)OC[C@H]1O [ANDROGRAPHOLIDE]" outcome_measure="residual activity" measurement_unit=% obs_value=84.72
compound="CC(=O)OCC(=O)[C@@]1(O)[C@H](C)C[C@H]2[C@@H]3CCC4=CC(=O)C=C[C@]4(C)[C@@]3(F)[C@@H](O)C[C@@]21C [DEXAMETHASONE ACETATE]" outcome_measure="residual activity" measurement_unit=% obs_value=88.69
compound="O=C(O)c1cc2ccccc2[nH]1 [INDOLE-2-CARBOXYLIC ACID]" outcome_measure="residual activity" measurement_unit=% obs_value=117.8
compound="CC(=O)Oc1cccc(O)c1 [RESORCINOL MONOACETATE]" outcome_measure="residual activity" measurement_unit=% obs_value=68.79
compound="CC(C)C1=CC2=CC[C@@H]3[C@](C)(CCC[C@@]3(C)C(=O)O)[C@H]2CC1 [ABIETIC ACID]" outcome_measure="residual activity" measurement_unit=% obs_value=33.77
compound=Cc1cc(-c2ccccc2)nnc1NCCN1CCOCC1.Cl outcome_measure="residual activity" measurement_unit=% obs_value=96.66
compound="CC12CC3CC(C)(C1)CC(N)(C3)C2.Cl [MEMANTINE HYDROCHLORIDE]" outcome_measure="residual activity" measurement_unit=% obs_value=88.95
compound="CC1(C)O[C@@H]2[C@@H](CO[C@@]3(COS(N)(=O)=O)OC(C)(C)O[C@@H]23)O1 [TOPIRAMATE]" outcome_measure="residual activity" measurement_unit=% obs_value=106.5
compound="CS(=O)(=O)OCCCCOS(C)(=O)=O [BUSULFAN]" outcome_measure="residual activity" measurement_unit=% obs_value=98.16
compound="CC1(C)S[C@@H]2[C@H](NC(=O)COc3ccccc3)C(=O)N2[C@H]1C(=O)[O-].[K+] [PENICILLIN V POTASSIUM]" outcome_measure="residual activity" measurement_unit=% obs_value=108.8
compound="C=CC(C1=CC(=O)C(OC)=CC1=O)c1ccccc1 (configuration not stated) [4-METHOXYDALBERGIONE]" outcome_measure="residual activity" measurement_unit=% obs_value=139.3
compound="COC(=O)/C(=C1/OC(=O)C(c2ccccc2)=C1O)c1ccccc1 [VULPINIC ACID]" outcome_measure="residual activity" measurement_unit=% obs_value=83.34
compound="COc1cc(O)cc(/C=C/c2ccccc2)c1 [PINOSYLVIN METHYL ETHER]" outcome_measure="residual activity" measurement_unit=% obs_value=91.5
compound="COc1cc2c(cc1OC)[C@@H]1C(=O)c3ccc(O)c(CC=C(C)C)c3O[C@@H]1CO2 [ROTENONIC ACID]" outcome_measure="residual activity" measurement_unit=% obs_value=99.21
compound="COc1cc(OC)cc(OC)c1 [1,3,5-TRIMETHOXYBENZENE]" outcome_measure="residual activity" measurement_unit=% obs_value=68.6
compound="CC(=O)Oc1cc2c(c(C)c1OC(C)=O)CC1OC13[C@@]2(C)CC[C@@]1(C)C2C[C@](C)(C(=O)O)CC[C@]2(C)CC[C@]31C (some centres not stated)" outcome_measure="residual activity" measurement_unit=% obs_value=37.72
compound="Cl.NCC(=O)CCC(=O)O [AMINOLEVULINIC ACID HYDROCHLORIDE]" outcome_measure="residual activity" measurement_unit=% obs_value=89.23
compound="O=c1[nH]c2ccccc2n1CCCN1CCC(n2c(=O)[nH]c3cc(Cl)ccc32)CC1 [DOMPERIDONE]" outcome_measure="residual activity" measurement_unit=% obs_value=111
compound="C[C@H](C[C@@H](O)[C@@H]1OC1(C)C)[C@@H]1CC[C@]2(C)C3=CC[C@H]4C(C)(C)C(=O)CC[C@]4(C)[C@H]3CC[C@@]12C [NILOTICIN]" outcome_measure="residual activity" measurement_unit=% obs_value=113.7
compound="CC1(C)CC[C@]2(C)CC[C@]3(C)C(=CC[C@@H]4[C@@]5(C)CC[C@H](O)C(C)(C)[C@@H]5CC[C@]43C)[C@@H]2C1 [beta-AMYRIN]" outcome_measure="residual activity" measurement_unit=% obs_value=75.14
compound="COc1cc(OC)c2c(=O)cc(-c3ccccc3)oc2c1 [CHRYSIN DIMETHYL ETHER]" outcome_measure="residual activity" measurement_unit=% obs_value=103.1
compound="COc1ccc(-c2cc(=O)c3c(OC)c(OC)c(OC)c(OC)c3o2)cc1 [TANGERETIN]" outcome_measure="residual activity" measurement_unit=% obs_value=175
compound="O=C1NC(=O)C(=O)C(=O)N1 [ALLOXAN]" outcome_measure="residual activity" measurement_unit=% obs_value=108.5
compound="C=CCc1ccc2c(c1)OCO2 [SAFROLE]" outcome_measure="residual activity" measurement_unit=% obs_value=100.9
compound="Cc1cc(=O)oc2c(O)c(O)ccc12 [4-METHYLDAPHNETIN]" outcome_measure="residual activity" measurement_unit=% obs_value=78.2
compound="Nc1ccc(S(=O)(=O)[N-]c2cnc3ccccc3n2)cc1.[Na+] [SULFAQUINOXALINE SODIUM]" outcome_measure="residual activity" measurement_unit=% obs_value=102.9
compound="COc1c(O)cc(O)cc1O [IRETOL]" outcome_measure="residual activity" measurement_unit=% obs_value=111.8
compound="Cl.c1ccc([C@H]2CN3CCSC3=N2)cc1 [LEVAMISOLE HYDROCHLORIDE]" outcome_measure="residual activity" measurement_unit=% obs_value=102.9
compound="COc1c2ccoc2cc2oc(=O)ccc12 [BERGAPTEN]" outcome_measure="residual activity" measurement_unit=% obs_value=97.44
